molecular target: HRgpA-6H (Porphyromonas gingivalis) (UniProt P28784); assay: ELISA on coated HRgpA-6H, OD relative to parental Fab
So basically: Ratio OD(Variant)/OD(WT) at 0.9 fold or higher? That is MET. Lower than 0.9 fold? That is NOT MET.

1. KB001 mouse Fab variant VL I98L (Fab, V domains shown) VH: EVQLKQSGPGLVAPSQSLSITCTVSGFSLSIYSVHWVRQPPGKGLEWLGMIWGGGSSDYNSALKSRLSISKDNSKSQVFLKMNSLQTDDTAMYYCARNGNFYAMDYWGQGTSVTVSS VL: QIVLTQSPAIMSASLGERVTMTCTASSSVSSSFLHWYQQKPGSSPQLWIYSTSNLASGVPARFSGSGSGTSYSLTISSMEAEDAATYYCHQYHHSPYLYTFGGGTKLEIK ... MET
2. KB001 mouse Fab variant VL Y92N (Fab, V domains shown) VH: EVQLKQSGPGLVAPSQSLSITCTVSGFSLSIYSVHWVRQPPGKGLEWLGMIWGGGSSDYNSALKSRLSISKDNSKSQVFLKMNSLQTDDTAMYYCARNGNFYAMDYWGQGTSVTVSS VL: QIVLTQSPAIMSASLGERVTMTCTASSSVSSSFLHWYQQKPGSSPQLWIYSTSNLASGVPARFSGSGSGTSYSLTISSMEAEDAATYYCHQNHHSPYIYTFGGGTKLEIK ... NOT MET
3. KB001 mouse Fab variant VL Y92D (Fab, V domains shown) VH: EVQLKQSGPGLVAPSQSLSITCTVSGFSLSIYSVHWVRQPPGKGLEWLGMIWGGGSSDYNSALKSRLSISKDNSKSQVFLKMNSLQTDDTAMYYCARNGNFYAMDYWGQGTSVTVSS VL: QIVLTQSPAIMSASLGERVTMTCTASSSVSSSFLHWYQQKPGSSPQLWIYSTSNLASGVPARFSGSGSGTSYSLTISSMEAEDAATYYCHQDHHSPYIYTFGGGTKLEIK ... NOT MET
4. KB001 mouse Fab variant VL S95T (Fab, V domains shown) VH: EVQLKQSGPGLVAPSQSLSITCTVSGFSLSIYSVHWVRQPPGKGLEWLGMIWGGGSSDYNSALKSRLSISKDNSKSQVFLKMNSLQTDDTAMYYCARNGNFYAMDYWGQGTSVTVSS VL: QIVLTQSPAIMSASLGERVTMTCTASSSVSSSFLHWYQQKPGSSPQLWIYSTSNLASGVPARFSGSGSGTSYSLTISSMEAEDAATYYCHQYHHTPYIYTFGGGTKLEIK ... MET
